Quick list: necrosis per entry.
# System: MDA-MB-231 cells
# assay.explanation: Apoptosis/necrosis assay (Annexin V–propidium iodide, flow cytometry)
# Format: cell-based, human
# setup.conditions: MDA-MB-231, 24 h; C14 and P8 at IC50-24, cisplatin 100 µM, doxorubicin 0.5 µM
Supply the numeric figure in %, leaving out any unit text.

In the examples that follow, each entry is paired with its recorded necrosis.
| compound | necrosis / % |
| --- | --- |
| CN(CC(=O)NC1CCOc2ccccc21)Cc1cccc(Cl)c1 (stereo not shown) | 0.56 |
| COc1cccc2c1C(=O)c1c(O)c3c(c(O)c1C2=O)C[C@@](O)(C(=O)CO)C[C@@H]3O[C@H]1C[C@H](N)[C@H](O)[C@H](C)O1 [Doxorubicin, doxorubicin, reference compound] | 9.20 |
| O=C(CN1CCN(c2cccc(Cl)c2)CC1)N[C@@H]1CCOc2ccccc21 | 4.28 |

Note: attention shifts to another entry.
Req: Complete the entry with necrosis for N.N.[Cl][Pt][Cl] [Cisplatin, cisplatin, reference compound]
Resp: 2.14

###

# Tested on: MDA-MB-231 cells
# assay.explanation: Apoptosis/necrosis assay (Annexin V–propidium iodide, flow cytometry)
# Format: cell-based, human
# setup.conditions: MDA-MB-231, 24 h; C14 and P8 at IC50-24, cisplatin 100 µM, doxorubicin 0.5 µM
# Description: To determine if the C14 and P8 compounds were able to evoke cell death by apoptosis or necrosis, cell lines MCF-10A, MDA-MB-231, and MDA-MB-231RR were treated at IC50-24 for 24 h. Apoptosis and necrosis were determined using the Apoptosis/Necrosis Detection kit (Abcam, Cambridge, UK) according to the manufacturer’s instructions. In brief, approximately 500,000 cells were seeded in 6-well plates (Corning) for 24 h. […]
measurement.name: apoptosis cells

Answered cases to consult:
| compound | apoptosis cells |
| --- | --- |
| COc1cccc2c1C(=O)c1c(O)c3c(c(O)c1C2=O)C[C@@](O)(C(=O)CO)C[C@@H]3O[C@H]1C[C@H](N)[C@H](O)[C@H](C)O1 [Doxorubicin, doxorubicin, reference compound] | 4.65% |
| O=C(CN1CCN(c2cccc(Cl)c2)CC1)N[C@@H]1CCOc2ccccc21 | 48.5% |

Okay, next one:
Req: Look up MDA-MB-231 cells data: apoptosis cells of N.N.[Cl][Pt][Cl] [Cisplatin, cisplatin, reference compound] , then report it.
Resp: 13.71%

###

# Test system: MDA-MB-231RR cells
# assay.explanation: XTT cell viability assay and IC50 determination
# Type: cell-based, human
# setup.conditions: 48 h, XTT, ± SD, read-out: IC50-48
// pIC50 lookup, one value per entry
Lab note — pIC50 values are minus log10 of concentrations in M.

| compound | pIC50 |
| --- | --- |
| N.N.[Cl][Pt][Cl] [Cisplatin, cisplatin, reference compound] | 3.98 |

Consider now this further compound.
Req: Return reported pIC50. Input compound: CN(CC(=O)NC1CCOc2ccccc21)Cc1cccc(Cl)c1 (centres unmarked)
Resp: 4.15

###

# System: MDA-MB-231 cells
# assay.explanation: XTT cell viability assay and IC50 determination
# Format: cell-based, human
# setup.conditions: MDA-MB-231, 24 h, XTT; ± SD; read-out: IC50-24
measurement.name: pIC50
// pIC50 here means minus log10 of the molar concentration (mol/L)

Req: Fill in: pIC50 on MDA-MB-231 cells, entry CN(CC(=O)NC1CCOc2ccccc21)Cc1cccc(Cl)c1 (stereo not shown)
Resp: 4.04
